Field: pIC50. System: MAGL (Homo sapiens, UniProt Q99685). Provenance: assorted publications.
Sequence (Q99685 whole entry, species assumed): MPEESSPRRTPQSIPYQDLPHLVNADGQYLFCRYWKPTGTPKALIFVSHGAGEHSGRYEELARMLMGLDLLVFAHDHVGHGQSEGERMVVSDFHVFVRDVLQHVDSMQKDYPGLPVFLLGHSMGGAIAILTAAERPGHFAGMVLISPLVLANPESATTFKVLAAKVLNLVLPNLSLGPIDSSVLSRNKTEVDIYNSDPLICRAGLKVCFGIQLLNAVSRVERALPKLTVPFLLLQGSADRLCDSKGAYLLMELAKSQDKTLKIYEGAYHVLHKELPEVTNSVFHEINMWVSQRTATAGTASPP
pIC50: −log10 of the molar value.
OBSERVATION_TYPE: pIC50

| COMPOUND | MEASURED_NUMBER |
| --- | --- |
| O=C(c1cc2ccc(-c3ccc(F)cc3)cc2[nH]1)N1CC(N2CCN(C(=O)c3nccs3)CC2)C1 | 6.78 |
| O=C(c1ccccc1)N1CCN(C2CN(C(=O)c3ccc(OCc4ccc(Cl)s4)cc3)C2)CC1 | 7.64 |
| O=C1CO[C@H]2CCN(C(=O)N3CCC(c4cn(Cc5ccccc5)c5ccc(Cl)cc45)C3)C[C@H]2N1 (stereo partly shown) | 9.10 |
| O=C(c1ccc[nH]1)N1CCN(C2CN(C(=O)c3[nH]c4nc(C(F)(F)F)ccc4c3Br)C2)CC1 | 6.54 |
| O=C(c1nccs1)N1CCN(C2CN(C(=O)c3cccc4nc(-c5ccccc5)oc34)C2)CC1 | 7.40 |
| COc1cc(-n2ccc3cc(C(=O)N4CC(N5CCN(C(=O)c6nccs6)CC5)C4)ccc32)ccc1C#N | 7.80 |
| CC1C(Oc2cc(C(F)(F)F)ccc2Br)CCN1C(=O)N1CC[C@@H]2OCC(=O)N[C@@H]2C1 (stereo partly shown) | 6.00 |
